target: hM1 (human Muscarinic receptor subtype 1) (Homo sapiens, UniProt P11229); test: Human M1 calcium mobilization FLIPR assay; conditions: hM1 expressed in CHO cells, intracellular Ca2+ release (FLIPR)
Sequence (P11229 whole entry): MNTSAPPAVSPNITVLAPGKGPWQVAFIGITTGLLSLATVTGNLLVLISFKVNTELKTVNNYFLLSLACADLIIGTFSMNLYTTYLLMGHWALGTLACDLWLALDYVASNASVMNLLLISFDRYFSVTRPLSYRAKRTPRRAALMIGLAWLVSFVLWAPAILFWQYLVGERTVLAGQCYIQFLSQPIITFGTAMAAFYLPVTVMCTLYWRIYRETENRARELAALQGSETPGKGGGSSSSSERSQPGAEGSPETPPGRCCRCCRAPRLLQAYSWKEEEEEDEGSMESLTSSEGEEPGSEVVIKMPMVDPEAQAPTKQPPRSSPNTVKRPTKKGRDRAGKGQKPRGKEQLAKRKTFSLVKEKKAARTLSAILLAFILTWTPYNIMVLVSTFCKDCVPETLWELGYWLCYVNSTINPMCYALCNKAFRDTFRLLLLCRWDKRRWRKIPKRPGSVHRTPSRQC
Reported EC50 by item:
Remember to quote the unit after the number.

                                   compound                            assayed_target  assay_endpoint   result
0  CCOCC1(C)CCC(N2CCC(N3C(=O)CO[C@H]4CCCC[C@@H]43)CC2)CC1 (single isomer, unassigned) [Example 31]  hM1 (human Muscarinic receptor subtype 1) (Homo sapiens, UniProt P11229)            EC50   190 nM
1  CCOCC1CC(N2CCC(N3C(=O)CO[C@H]4CCCC[C@@H]43)CC2)C1 (single isomer, unassigned) [Example 39]  hM1 (human Muscarinic receptor subtype 1) (Homo sapiens, UniProt P11229)            EC50    33 nM
2  O=C1NC[C@H]2CCCC[C@@H]2N1C1CCN(C2CCC(COCC(F)F)CC2)CC1 (single isomer, unassigned) [Example 50]  hM1 (human Muscarinic receptor subtype 1) (Homo sapiens, UniProt P11229)            EC50  0.76 nM
3  O=C1CO[C@H]2CCCC[C@@H]2N1C1CCN(C2CC(COCC3CC3)C2)CC1 (single isomer, unassigned) [Example 41]  hM1 (human Muscarinic receptor subtype 1) (Homo sapiens, UniProt P11229)            EC50    52 nM
4  CCCOC1CCC(N2CCC(N3C(=O)CO[C@H]4CCCC[C@@H]43)CC2)CC1 (single isomer, unassigned) [Example 17]  hM1 (human Muscarinic receptor subtype 1) (Homo sapiens, UniProt P11229)            EC50    88 nM

EC50 measured on CCCOC1CCC(N2CCC(N3C(=O)NC[C@H]4CCCC[C@@H]43)CC2)CC1 (single isomer, unassigned) [Example 06] = 41 nM

EC50 measured on CCCOC1CCC(N2CCC(N3C(=O)NC[C@H]4CCCC[C@@H]43)CC2)CC1 (single isomer, unassigned) [Example 05] = 160 nM

EC50 measured on O=C1CO[C@H]2CCCC[C@@H]2N1C1CCN(C2CCC(OCC3CC3)CC2)CC1 (single isomer, unassigned) [Example 20] = 170 nM

EC50 measured on O=C1COC2CCCC2N1C1CCN([C@H]2CC[C@@H](COCC3CC3)CC2)CC1 (single isomer, unassigned) [Example 49] = 110 nM

EC50 measured on O=C1CO[C@H]2CCCC[C@@H]2N1C1CCN(C2CCC(COCCF)CC2)CC1 (single isomer, unassigned) [Example 24] = 41 nM

EC50 measured on O=C1NC[C@H]2CCCC[C@@H]2N1C1CCN(C2CCCCC2)CC1 [Example 12] = 60 nM

* * *

Biological target: cloned human M2 receptor (Homo sapiens, UniProt P08172)
Sequence (P08172 1-466): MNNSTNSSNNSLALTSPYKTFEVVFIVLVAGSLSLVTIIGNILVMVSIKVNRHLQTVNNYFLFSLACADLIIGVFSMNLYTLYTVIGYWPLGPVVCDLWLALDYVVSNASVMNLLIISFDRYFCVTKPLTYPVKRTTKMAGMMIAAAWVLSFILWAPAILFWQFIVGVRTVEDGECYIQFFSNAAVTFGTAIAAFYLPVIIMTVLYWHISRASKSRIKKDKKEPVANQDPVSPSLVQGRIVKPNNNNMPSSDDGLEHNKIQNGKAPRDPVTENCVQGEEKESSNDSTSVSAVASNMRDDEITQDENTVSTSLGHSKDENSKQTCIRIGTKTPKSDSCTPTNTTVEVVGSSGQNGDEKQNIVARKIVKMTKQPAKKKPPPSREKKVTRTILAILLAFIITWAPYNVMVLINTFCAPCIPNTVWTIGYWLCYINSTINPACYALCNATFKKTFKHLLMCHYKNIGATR
Test: hM2 receptor GTPγS binding
Conditions: CHO membranes expressing hM2, [35S]GTPγS binding
Assay Endpoint: EC50

In [3]: df
Out[3]:
                                   compound                            assayed_target    result
0  O=C1CO[C@H]2CCCC[C@@H]2N1C1CCN(C2CC(COCC3CC3)C2)CC1 (single isomer, unassigned)  cloned human M2 receptor (Homo sapiens, UniProt P08172)   > 15 µM
1  CCOC[C@@H]1CC[C@H](N2CCC(N3C(=O)CO[C@H]4CCCC[C@@H]43)CC2)C1  cloned human M2 receptor (Homo sapiens, UniProt P08172)  > 3.9 µM
2  O=C1CO[C@H]2CCCC[C@@H]2N1C1CCN(C2CCC(COCC(F)F)CC2)CC1 (single isomer, unassigned) [Example 26]  cloned human M2 receptor (Homo sapiens, UniProt P08172)  > 3.6 µM
3  CC(C)OCC1CCC(N2CCC(N3C(=O)CO[C@H]4CCC(F)(F)C[C@@H]43)CC2)CC1 (single isomer, unassigned) [Example 38]  cloned human M2 receptor (Homo sapiens, UniProt P08172)   > 10 µM

Now for a further compound.
EC50 measured on O=C1CO[C@H]2CCCC[C@@H]2N1C1CCN(C2CCC(COCCF)CC2)CC1 (single isomer, unassigned) [Example 25] = > 2.7 µM
